system: SK-OV-3; experiment: NCI tumour cell line growth inhibition, 48 h
Activity calls are given as the source filed them. Rule as the data show it: active = GI50 up to about 1.1 µM and inactive = higher.
recorded.metric: GI50

>>> result("CSc1s[s+]c(SC)c1-c1ccccc1")
"15.9 µM (inactive)"
>>> result("O=C(CCCC(=O)N1CC(CCl)c2ccc([N+](=O)[O-])cc21)N1CC(CCl)c2ccc([N+](=O)[O-])cc21 (stereo unspecified)")
"> 100 µM (inactive)"
>>> result("Nc1nc(SCc2ccccc2Cl)c2[nH]cnc2n1")
"24.7 µM (inactive)"
>>> result("O=C(O)Cc1ccc(/N=N/c2c(O)c(C(=O)O)cc3ccccc23)cc1")
"> 100 µM (inactive)"
>>> result("NNC1=N/C(=C\\c2ccccc2O)C(=O)N1")
"31.7 µM (inactive)"

Param request: GI50 | system SK-OV-3 | item "CN(C)C(=S)/N=c1\ss/c(=N\S(=O)(=O)c2ccccc2)n1N(C)C"
> 100 µM (inactive)

###

test system: UO-31; test: NCI tumour cell line growth inhibition, 48 h
Activity calls are given as the source filed them. Rule as the data show it: active = GI50 up to about 1.1 µM and inactive = higher.
I'd be grateful if you could share measured GI50 for these entries.

>>> result("Cc1cc(-c2nc3c(O)cccc3s2)ccc1N")
"15.8 µM (inactive)"
>>> result("NC(=O)c1nc[nH]c1/N=N/SCC(N)C(=O)O (stereo unspecified)")
"4.22 µM (inactive)"
>>> result("COc1cc2c(cc1OCCCN1CCOCC1)N=C[C@@H]1CCCN1C2=O")
"11.5 µM (inactive)"
>>> result("CSC1=NN(C(C)=O)C(C(OC(C)=O)C(OC(C)=O)C(OC(C)=O)C(COC(C)=O)OC(C)=O)S1 (stereo unspecified)")
"11 µM (inactive)"

For each of the compounds below, note its GI50.
1. Cc1ccccc1/N=N/c1c(O)c(S(=O)(=O)O)cc2cc(S(=O)(=O)O)ccc12
2. COc1ccc2[nH]c3c(C)c4cc[n+](C)cc4c(C)c3c2c1
3. Clc1ccc2oc(CCC3CCCCC3)nc2c1
4. COc1cc(/C=C/c2cc(=O)cc(/C=C/c3ccc(O)c(OC)c3)o2)ccc1O
5. N#Cc1c(-c2ccccc2)nc(-c2ccccc2)sc1=S
6. CCO/C=C1\N=C(c2ccc(Cl)c(Cl)c2)OC1=O
7. CC[C@@]1(O)C(=O)OCc2c1cc1n(c2=O)Cc2c-1nc1ccccc1c2CC[Si](C)(C)C

> 100 µM (inactive)
38.5 µM (inactive)
17.9 µM (inactive)
> 100 µM (inactive)
> 100 µM (inactive)
36.6 µM (inactive)
< 0.01 µM (active)

###

system: ACHN; assay: NCI tumour cell line growth inhibition, 48 h
The source made the active and inactive calls. No stated cut-off is given here; in the data, active = GI50 up to about 1.1 µM and inactive = higher.
recorded.metric: GI50

>>> result("NC(=S)N/N=C1\\C(=O)N(CCc2ccccc2)C(=O)C1C(=O)NCCc1ccccc1 (stereo not given)")
"> 100 µM (inactive)"
>>> result("Cc1cc(NS(=O)(=O)c2ccc(/N=[N+](\\[O-])c3ccc(S(=O)(=O)Nc4cc(C)on4)cc3)cc2)no1")
"> 100 µM (inactive)"
>>> result("N#Cc1c(-c2ccccc2)c(/C=N/c2ccc(F)cc2)c(=O)n2c1[nH]c1ccccc12")
"18.5 µM (inactive)"

For each of the molecules below, note its GI50.
1. CCOC(=O)C1(Cc2ccccc2)Cc2ccccc2C1=O (stereo not given)
2. COc1ccc(SCc2cc(OCc3ccccc3)c(OCc3ccccc3)c(OCc3ccccc3)c2)cc1

1: 28.1 µM (inactive); 2: 1.73 µM (inactive)

For each of the molecules below, note its GI50.
1. CCN(CC)Cc1ccc(C(=S)Nc2ccc(Cl)cc2)s1
2. COC(=O)NNC(=O)OC.COC(=O)Nc1ccccc1NC(=O)OC.COC(=O)Oc1nn(C(=O)OC)c(=O)c2ccccc12
3. c1ccc2c(c1)[nH]c1c[nH]c3c4cccnc4nc-3c12
4. NCCC1([N+](=O)[O-])CCNCC1
5. CC(C)(C)c1cc(C(=O)/C=C/c2c(Cl)cccc2Cl)cc(C(C)(C)C)c1O

1: 14.2 µM (inactive); 2: > 100 µM (inactive); 3: 11.3 µM (inactive); 4: > 100 µM (inactive); 5: 14.7 µM (inactive)

###

system: CAKI-1; assay: NCI tumour cell line growth inhibition, 48 h
The source made the active and inactive calls. Rule as the data show it: active = GI50 up to about 1.1 µM and inactive = higher.
Can you answer with just one of these options? active, inactive

Completed entries (count: 3):
>>> class("Oc1ccc2ccccc2c1/N=N/c1ccsc1")
"inactive"
>>> class("c1ccc(C(c2ccccc2)c2ccccn2)cc1")
"inactive"
>>> class("COc1cc(/C=C2\\Cc3cc(OC)c(OC)cc3C2=O)cc(OC)c1")
"inactive"

Test call, this compound: COc1cc2c(cc1OC)C1Cc3ccc(OC)c(OC)c3C[N+]1([O-])CC2 (stereo not given)
inactive

Test call, this compound: "Cc1cc(-c2ccc(C(=O)C(Cl)(Cl)Cl)[nH]2)on1"
inactive

Test call, this compound: COc1cccc2c1C(=O)c1c(O)c3c(c(O)c1C2=O)CC(O)(C(O)CO)CC3OC1CC(N2CCOCC2)C(O)C(C)O1 (stereo not given)
active

Test call, this compound: "CN(C)c1ccc(-c2c(C#N)c(-c3ccccc3)n(NS(=O)(=O)c3ccccc3)c(=O)c2C#N)cc1"
inactive

Test call, this compound: CC12C(=CC(=O)CC1SCCS(=O)(=O)O)C(C#N)=C(N)N2c1ccc(Cl)c(Cl)c1 (stereo not given)
inactive

Test call, this compound: COc1cc2c(cc1O)C1C(O)C(O)C=C3CCN(C2)C31 (stereo not given)
inactive

Test call, this compound: COC(=O)C(=O)C(C(=O)C(=O)Nc1cc([N+](=O)[O-])ccc1C#N)c1nc2ccccc2nc1O (stereo not given)
inactive

###

system: UACC-62; test: NCI tumour cell line growth inhibition, 48 h
Calls of active or inactive are those of the source. Cut-off read from the data, not from the text of the source: active = GI50 up to about 1.1 µM and inactive = higher.
recorded.metric: GI50

>>> result("COc1ccc(Cc2c3cc(OC)c(OC)cc3cc[n+]2C)cc1")
"18.9 µM (inactive)"

For each of the molecules below, note its GI50.
1. Cc1c(/C=N/N(C)C)oc2c1cc(O)c1ncccc12
2. CC(C)OC(=O)[C@H]1ON2O[C@H](O[C@@H]3CCCC[C@H]3c3ccccc3)C([Si](C)(C)c3ccccc3)[C@H]3OC(=O)[C@@H]1C32 (stereo partly drawn)
3. O=[N+]([O-])c1ccc(-c2nc3cc(Cl)ccc3[nH]2)cc1

1: 13.8 µM (inactive); 2: > 100 µM (inactive); 3: 81.1 µM (inactive)

For each of the molecules below, note its GI50.
1. CN(C)c1ccc(-c2c(C#N)c(-c3ccccc3)n(NS(=O)(=O)c3ccccc3)c(=O)c2C#N)cc1
2. COc1cc([C@@H]2c3cc4c(cc3[C@@H](c3c(O)cc(O)c5c3O[C@H](c3ccc(O)c(O)c3)[C@H](OC(=O)c3cc(O)c(O)c(O)c3)C5)[C@H]3COC(=O)[C@H]23)OCO4)cc(OC)c1O
3. CC(=O)OCCN(C1=NCCN1)/[N+](C=c1ccc(=C=[N-])cc1)=C/c1ccc(C#N)cc1
4. CC12C(=CC(=O)CC1SCCS(=O)(=O)O)C(C#N)=C(N)N2c1ccc(Cl)c(Cl)c1 (stereo not drawn)
5. CCCCn1cnnc1NS(=O)(=O)c1cc(C)c(Cl)cc1SCC(=O)O

["43.3 µM (inactive)", "98.9 µM (inactive)", "> 100 µM (inactive)", "> 100 µM (inactive)", "> 10 µM (inactive)"]

###

system: HCT-15
recorded.metric: GI50 (µM)
Numbers only, in µM.

>>> recorded_number("Nc1nncc2[nH]cnc12")
44.4

Shifting focus to the molecule that follows.
Please look at this molecule and report its GI50: "Cc1ccc(C(=O)/C=C(\O)C(=O)NC23CC4CC(CC(C4)C2)C3)cc1"
6.27

###

I'd be grateful if you could share measured GI50 for these entries.
tested on: SNB-19; assay: NCI tumour cell line growth inhibition, 48 h
The source made the active and inactive calls. Rule as the data show it: active = GI50 up to about 1.1 µM and inactive = higher.

Some compounds with recorded GI50:
>>> result("CC1(C)OC2OC(COC(=O)C=[N+]=[N-])C3OC(C)(C)OC3C2O1 (centres undefined)")
"> 100 µM (inactive)"
>>> result("CCOP(=O)(O)C(Nc1ccc(/N=N/c2ccccc2)cc1)c1ccc(C(Nc2ccc(/N=N/c3ccccc3)cc2)P(=O)(O)OCC)cc1 (centres undefined)")
"21.5 µM (inactive)"
>>> result("CN1CC=C(OP(=O)(NCc2ccccc2)N(CCCl)CCCl)CC1 (centres undefined)")
"> 100 µM (inactive)"
>>> result("CC(C)[C@@H]1CC[C@@H](C)C[C@H]1OC(=O)/C=C1/C2C=CC(O2)C1C(=O)O[C@@H]1C[C@H](C)CC[C@H]1C(C)C (some centres undefined)")
"> 100 µM (inactive)"
>>> result("NC(=O)c1cccc([C@@H]2O[C@H](CO)[C@@H](O)[C@H]2O)c1")
"14 µM (inactive)"
>>> result("COC(=O)C1Cc2c([nH]c3ccccc23)C(c2cccc(O)c2)N1 (centres undefined)")
"42.5 µM (inactive)"
>>> result("COc1ccc2c(c1)[n+]([O-])c(C#N)c(N1CCN(c3ccc([N+](=O)[O-])cc3)CC1)[n+]2[O-]")
"5.22 µM (inactive)"
>>> result("O=C(O)CCC(NC(=O)c1ccc(CNc2nc3cc(C(F)(F)F)ccc3nc2C(=O)O)cc1)C(=O)O (centres undefined)")
"> 100 µM (inactive)"

Shifting focus to the compound that follows.
Please look at this compound and report its GI50: CN1C(=O)C2CCCC(=O)N2c2cccnc21 (centres undefined)
> 100 µM (inactive)
